Values compiled from a melting point compilation (Tetko et al.; mined from patent text by program, amines drawn as free bases though some values may be those of a salt).

Recorded melting point values for a group of molecules are listed next.

Lookup: Look up melting point: CC(=O)NCc1ccc(Nc2nccc(-c3sc(-c4cccnc4)nc3C)n2)cc1
Found: 199 to 201 °C

Lookup: COC(=O)CCCCCOc1ccc(NC(=O)COCc2ccccc2)cc1 ?
Found: 46 to 49 °C

Lookup: CCCCCCNP(N)(N)=S ?
Found: 65 to 70 °C

Lookup: Clc1ccc2c(c1)Cc1ccc(-c3nnn[nH]3)cc1S2 ?
Found: 257 °C

Lookup: Oc1ccc(-c2cccnc2)cc1 ?
Found: 195 °C

Lookup: CCCc1c(OCCCOc2ccc(C(=O)C(=O)O)cc2)ccc(C(=O)OC)c1O ?
Found: 86 to 87 °C

Lookup: NC(=O)Nc1cccc2c1C(=O)c1c-2n[nH]c1-c1ccc(N2CCNCC2)cc1 ?
Found: 257 °C

----------
Measured quantity: melting point

> print(dat)
                            smiles.notation  measured.quantity     measured
1  COC1(c2cc(F)cc(OCc3nc(-c4ccc(F)cc4)c(-c4ccc(S(N)(=O)=O)cc4)o3)c2)CCOCC1      melting point  70 to 72 °C
2  Cn1c(C(F)(F)F)cc(=O)n(-c2cc(Oc3ccc[nH]c3=O)c(Cl)cc2F)c1=O      melting point       181 °C

Lookup: Look up melting point: Cc1sc2c(c1C(=O)CCCCl)C(=O)NCCC2
Found: 113 to 115 °C

Lookup: CC(=O)Nc1ccc(Br)c2c1CCN(C(C)=O)C2 ?
Found: 179 to 181 °C

Lookup: O=C(O)CN1CN(c2ccccc2)C2(CCCCC2)C1 ?
Found: 162 to 164 °C

----------
Recorded melting point values for a group of compounds are listed next.

Guide cases for melting point, answers given:
> print(dat)
                                   compound       measured
1                  CC(=O)c1ccc(CCC(=O)O)cc1  118 to 119 °C
2                     COc1cccc(Cl)c1CC(=O)O  164 to 165 °C
3  O=C(OCc1ccccc1)[C@@H]1COC(c2ccccc2OCc2ccccc2)=N1    69 to 71 °C

Lookup: Look up melting point: COCCC(=O)N[C@H]1CC[C@H](CCN2CCN(c3nccc4c3OCC4)CC2)CC1
Found: 180 °C

Lookup: CCCCCCCCCCOc1ccc(C(=O)OCC(=O)OC)cc1 ?
Found: 30 to 32 °C

Lookup: CCCC1=C(C#N)C(c2ccccc2Cl)c2c(n[nH]c2-c2ccc3ccccc3c2)N1 (stereo unspecified) ?
Found: > 270 °C

Lookup: CN(C)C=CC(=O)c1ccc(C(=O)N2Cc3cccn3Cc3ccccc32)cc1 ?
Found: 203 to 205 °C

Lookup: C#CCN(C)c1nc(CO)cs1 ?
Found: 69 to 70 °C

----------
Measured quantity: melting point

Guide cases for melting point, answers given:
> print(dat)
                                   compound  measured.quantity       measured
1  O=C(NC1CCN(C(=O)NCCC2(C(=O)NCC(F)(F)F)c3ccccc3-c3ccccc32)CC1)c1ccccc1      melting point  220 to 222 °C
2  CC(I)CC(F)(F)C(F)(F)C(F)(F)C(F)(F)C(F)(F)C(F)(F)CC(C)I (centres undefined)      melting point          53 °C
3  CNC(=O)OC1Oc2ccc(OS(C)(=O)=O)cc2C1(C)C (centres undefined)      melting point  126 to 127 °C
4  COc1cc(C(C)C)c2c(c1)S(=O)(=O)N(COC(=O)c1c(Cl)ccc(O)c1Cl)C2=O      melting point  152 to 154 °C
5             COc1ccc(CCNC(N)=O)cc1OC1CCCC1      melting point  136 to 137 °C
6  COc1ccc(C(=O)NC(CC(C)C)C(=O)O)c(SSc2cc(OC)ccc2C(=O)NC(CC(C)C)C(=O)O)c1 (centres undefined)      melting point  230 to 231 °C
7  Cc1ncc2c(c1OCC(=O)O)COC2c1ccc(F)cc1 (centres undefined)      melting point         214 °C
8               CC(=NOCCC(=O)O)c1ccc(Cl)cc1      melting point    80 to 83 °C

Turning now to a further record.
Lookup: Look up melting point: Cc1cc(SC2=C(O)CC(CCc3cc(Cl)c(N)c(Cl)c3)(C(C)C)OC2=O)c(C(C)(C)C)cc1N (centres undefined)
Found: 103 to 107 °C

----------
Measured quantity: melting point

Guide cases for melting point, answers given:
> print(dat)
                                   molecule       measured
1  CC(C)(C)[Si](OCCOc1ccc(/C=C/C(=O)O)c(Oc2ncc(C(F)(F)F)cc2Cl)c1)(c1ccccc1)c1ccccc1         153 °C
2  Cc1ccc(-c2ccc(C(=O)Nc3ccc4cc(CN5CCCC5)cnc4c3C)cc2F)cc1  193 to 194 °C
3         C=C(C)c1ccc(-c2ccc(C(=C)C)cc2)cc1         182 °C
4  O=C(N[C@H](Cc1ccccc1C(F)(F)F)[C@@H](O)c1ccc(F)cc1)c1ccc(F)c2ccccc12 (racemic)  200 to 201 °C

Turning now to a further record.
Lookup: Look up melting point: O=C1c2ccccc2C(=O)N1c1cccnc1Cl
Found: 156 to 157 °C

----------
Recorded melting point values for a group of molecules are listed next.

Guide cases for melting point, answers given:
> print(dat)
                          molecule       measured
1  CCc1n[nH]c(CC)c1CCCCCCOc1ccccc1  119 to 121 °C
2                OCCOc1cccc2c1OCO2    56 to 57 °C

Lookup: Look up melting point: COC(=O)C1=C(O)c2sc3ccccc3c2S(=O)(=O)N1Cc1ccc(OC)cc1
Found: 163 to 164 °C

Lookup: COC(=O)CCCCCCCCCC1=C(C)C(=O)C(OC)=C(OC)C1=O ?
Found: 37 to 38 °C

Lookup: CCC(=O)NC(C)(C)c1ccc(C(=O)Nc2cn3cc(Cl)ccc3n2)cc1 ?
Found: 249 to 252 °C

Lookup: COc1cc2c(CCN)c[nH]c2cc1Cl ?
Found: 150 °C

Lookup: CC1(C)Oc2ccc(C#N)cc2[C@H](N(Cc2ccco2)c2ncco2)[C@H]1O ?
Found: 63 °C

----------
Recorded melting point values for a group of compounds are listed next.

Guide cases for melting point, answers given:
> print(dat)
                                   compound  measured.quantity       measured
1  CCCC=Cc1c(C(C)C)nc(C(C)C)c(CO)c1-c1ccc(F)c(F)c1      melting point  105 to 106 °C
2  O=C1Nc2cc3c(cc2SC1CCCN1CCN(c2ccc(F)cc2)CC1)OCO3 (stereo not given)      melting point  175 to 177 °C
3                CNc1ncn(-c2ccccc2C)c(=O)n1      melting point         192 °C
4  CC(C)(C)OC(=O)NCc1cccc2c1C(=O)N(C1CCC(=O)NC1=O)C2=O (stereo not given)      melting point  180 to 182 °C
5  CCOC12CCC(=O)C3(C)Oc4c(OC)ccc5c4C31CCN(CCc1ccccc1)C2C5 (stereo not given)      melting point    86 to 89 °C

Lookup: Look up melting point: CC(C)(C)OC(=O)NCCCCC(=O)NCCC(=O)O
Found: 70 °C

Lookup: Nc1cc(N)c(-c2ccc([N+](=O)[O-])cc2-c2cccc(Cl)c2Cl)cn1 ?
Found: 237 to 239 °C

Lookup: O=C(O)Cc1cccc(Oc2ccc(Cl)cc2)c1[N+](=O)[O-] ?
Found: 167 to 170 °C

Lookup: COC(=O)c1cc(-c2cccc(C(=O)O)c2)c2cc(Cc3ccc(F)cc3)cnc2c1O ?
Found: 265 to 267 °C

Lookup: C=CCc1c(C(F)(F)F)[nH]n(-c2ccc(Br)c(Cl)c2)c1=O ?
Found: 117 °C

----------
Recorded melting point values for a group of molecules are listed next.

> print(dat)
                                   molecule  measured.quantity       measured
1  N#Cc1cccc(C2C=C(C(F)(F)F)NC3=C2C(=O)CCC3)c1 (stereo not given)      melting point  182 to 183 °C

Lookup: Look up melting point: CN(C)c1ccc2c(c1)SC1=NCCN12
Found: 144 °C

Lookup: COc1c(C(C)(C)C)cc([PH](=O)c2cc(C(C)(C)C)c(OC)c(C(C)(C)C)c2)cc1C(C)(C)C ?
Found: 166 °C

Lookup: COC(=O)C(C)(C)Oc1ccc(C(C)=O)cc1 ?
Found: 62 to 63 °C

Lookup: Cc1ccc(OCCCl)c(C(N)=O)c1 ?
Found: 111 to 113 °C

Lookup: Cc1cc(COc2ccc(C(=O)NC[C@@H](C(=O)NO)N3CCN(Cc4ccc(F)cc4)CC3)cc2)c2ccccc2n1 ?
Found: 167 °C

Lookup: COC(=O)COc1ccc2cc(-c3cnc(-c4cn(C)c5ccccc45)o3)ccc2c1 ?
Found: 187 to 189 °C

Lookup: COc1cc2nc(N)nc(-c3ccc(O)c(Br)c3)c2cc1OC ?
Found: 233 to 234 °C

Lookup: OCCC(O)OCn1cc(Cl)c2c(Cl)ncnc21 (stereo not given) ?
Found: 142 to 143 °C

Lookup: CCCOc1ccc(COCC)cc1-c1nc2c(CCC)nn(C)c2c(=O)[nH]1 ?
Found: 89 to 90 °C
